meta.source: PubChem BioAssay (NCI)

Test system: A549/ATCC NSCLC
protocolText: NCI-60 one-dose screen, 48 h
recordedConditions: 10 µM unless noted
Method: Growth inhibition of the A549/ATCC human Non-Small Cell Lung tumor cell line is measured as a screen for anti-cancer activity. Cells are grown in 96 well plates and exposed to the test compound for 48 hours. Compounds are tested at a single concentration, which is 10^-5 M for most compounds. The reported endpoint is percent growth (GI% or GIPRCNT), where numbers from 0 - 100% represent growth inhibition, and numbers from -100% - 0 represent cell death. […]
Compounds without any hit were thinned out: in the full panel of roughly 83,000, 20% have a hit. The source made the active and inactive calls. Rule for the calls: active = growth percent below 10; inactive = the rest.
Answer with one of the outcomes True (active), False (inactive)

Some solved cases for reference:
[
  {
    "compound": "O=C(/C(Br)=C/c1ccccc1)c1ccccc1",
    "qualitativeLabel": "False"
  },
  {
    "compound": "Oc1ccccc1/C=N/N=C/c1c(O)ccc2ccccc12",
    "qualitativeLabel": "False"
  },
  {
    "compound": "COC1NC(Cl)=C(C#N)C(C#N)(C#N)C1(C)C (stereo unspecified)",
    "qualitativeLabel": "False"
  },
  {
    "compound": "C/C(=C\\c1ccc2ccccc2c1)[N+](=O)[O-]",
    "qualitativeLabel": "False"
  },
  {
    "compound": "COC(=O)[C@H](Cc1cn(C)cn1)NC(=O)[C@@H](NC(=O)Nc1cc(C(F)(F)F)cc(C(F)(F)F)c1)C(C)(C)C",
    "qualitativeLabel": "False"
  },
  {
    "compound": "CN(C)CCOC(=O)C(C)(C)C",
    "qualitativeLabel": "False"
  },
  {
    "compound": "N#Cc1ccc(OCc2nc(N)nc(N)c2-c2ccc(Cl)c(Cl)c2)cc1",
    "qualitativeLabel": "True"
  },
  {
    "compound": "COc1ccc2cc(C(C)C(=O)Nc3ccc(S(=O)(=O)Nc4cc(C)on4)cc3)ccc2c1 (stereo unspecified)",
    "qualitativeLabel": "False"
  }
]

For this compound, state the assay outcome: CCOC(=O)NNc1[nH]c(-c2ccc(OC)cc2)cc1C#N
False

Also check O=C(/C=C/c1cccc(O)c1)c1cccc(-n2cc(-c3ccc(Cl)cc3)[nH]c2=O)c1
False

Ok, now CCCCCCCCCCCCc1ccc([N+](CC)(CC)CC)cc1
False

---

System: KM12 colon
protocolText: NCI-60 one-dose screen, 48 h (100 = growth as untreated, 0 = no growth, -100 = all killed)
recordedConditions: 10 µM unless noted
Compounds without any hit were thinned out: in the full panel of roughly 83,000, 20% have a hit.
Listing: growth of selected compounds
Number in %, nothing else.

Some entries whose results are on file:
[
  {
    "compound": "O=C(Cc1ccccc1[N+](=O)[O-])c1ccc2c(c1)OCO2",
    "readoutNumber": 107
  },
  {
    "compound": "CCOC(=O)c1sc(NS(=O)(=O)c2ccccc2)nc1C",
    "readoutNumber": 129
  },
  {
    "compound": "COc1ccc(Nc2c3ccccc3nc3ccccc23)cc1",
    "readoutNumber": 37.6
  },
  {
    "compound": "CCC(C)(CC)c1ccc(O)c(C)c1",
    "readoutNumber": 107
  },
  {
    "compound": "CCCCCc1ccnc(CC(=O)c2ccc(OC)cc2)c1",
    "readoutNumber": 99.9
  },
  {
    "compound": "CCCCCCNC(=O)Oc1ccc(/C(=C(/C)Cc2ccc(OC)cc2)c2ccc(OCCN3CCCCC3)cc2)cc1",
    "readoutNumber": 85.6
  },
  {
    "compound": "O=C1C=C(OCC=C(C(F)(F)F)C(F)(F)F)c2ccccc2C1=O",
    "readoutNumber": 43.3
  },
  {
    "compound": "O=C(NC(=S)NNC(=S)NNc1ccccc1)c1ccccc1",
    "readoutNumber": 59
  },
  {
    "compound": "COc1cccc2c1n([O-])c1cccc(OC)c1[n+]2=O",
    "readoutNumber": 73.3
  },
  {
    "compound": "C/C(=N\\Nc1ccc(Cl)cn1)c1ccc2ccccc2n1",
    "readoutNumber": 20.2
  }
]

Could you tell me which growth is on file for COc1cc(NC(C)CCCN)c2nc(C)ccc2c1OC (configuration not stated) ?
103

Further, for CN(C)CCOC(=O)C(C)(C)C ?
106
